Numbers sourced from PubChem BioAssay AID463173.

# Tested on: DeltatarO mutant
# ASSAY PROTOCOL: S. aureus survival, RN4220 and DeltatarO strains – OD600, teichoic acid synthesis inhibitors, primary screen (AID 463173)
# TEST SETTINGS: S. aureus RN4220 wild type/DeltatarO growth, OD600, 18 h, screened at 18.75 µg/mL (by protocol)
Out of some 52,000 compounds screened, about 4,300 (8.3%) were called active. Cut-off read from the data, not from the text of the source: active = survival mostly below about 52% (no sharp cut-off); inactive = mostly above about 56%. The list comes from a sample in which actives are over-represented; it also holds close analogues and randomly drawn compounds.
Outcomes: y = active, n = inactive

* Cc1ccc(NC(=O)Nc2cn(C)c(=O)c3ccccc23)c(Cl)c1 | n
* COc1ccccc1NC(=O)Cn1c(=O)n(Cc2ccco2)c(=O)c2oc3ccccc3c21 | n
* CN(C(=O)Nc1cn(C)c(=O)c2ccccc12)c1ccccc1 | y
* O=c1c2oc3ccccc3c2n(Cc2ccc(Cl)cc2)c(=O)n1Cc1ccccc1 | n
* CCCCn1c(=O)c2oc3ccccc3c2n(CC(=O)Nc2cccc(Cl)c2C)c1=O | n

* * *

# Test system: DeltatarO mutant
# ASSAY PROTOCOL: S. aureus survival, RN4220 and DeltatarO strains – OD600, teichoic acid synthesis inhibitors, primary screen (AID 463173)
# TEST SETTINGS: S. aureus RN4220 wild type/DeltatarO growth, OD600, 18 h, screened at 18.75 µg/mL (by protocol)
Hit rate of the full screen: of about 52,000 compounds, about 4,300 (8.3%) were called active. Rule as the data show it: active = survival mostly below about 52% (no sharp cut-off); inactive = mostly above about 56%. Only a selection was taken, and actives are over-represented in it overall.
Outcome codes: active, inactive

- COC(=O)c1c(NC(=O)COc2c(C)cccc2C)sc2c1CCCC2: active
- COc1ccc(NC(=O)CCc2nnc3n(Cc4ccc(C)cc4)c(=O)c4ccccc4n23)cc1: inactive
- COC(=O)c1c(NC(=O)COc2c(C)ccc(C)c2C)sc2c1CCC(C)C2 (stereo not given): active
- COC(=O)c1c(NC(=O)Cc2cccs2)sc2c1CCCC2: inactive
- COC(=O)c1c(NC(=O)c2ccc(Cl)c(Cl)c2)sc2c1CCCC2: inactive
- COC(=O)c1c(NC(=O)C(C)Oc2ccc(Cl)c(C)c2)sc(C)c1C (stereo not given): active
- COC(=O)c1c(NC(=O)COc2cc(C)ccc2C(C)C)sc2c1CCC(C)C2 (stereo not given): inactive
- COC(=O)c1c(NC(=O)COc2ccc(OC)cc2)sc2c1CCC(C)C2 (stereo not given): inactive
- CCOC(=O)c1sc(NC(=O)C(C)Oc2ccc(OC)cc2)c(C(=O)OCC)c1C (stereo not given): inactive
- Cc1ccc2sc(NC(=O)c3ccc4c(c3)OCCO4)nc2c1C: inactive

* * *

# System: DeltatarO mutant
# ASSAY PROTOCOL: S. aureus survival, RN4220 and DeltatarO strains – OD600, teichoic acid synthesis inhibitors, primary screen (AID 463173)
# TEST SETTINGS: S. aureus RN4220 wild type/DeltatarO growth, OD600, 18 h, screened at 18.75 µg/mL (by protocol)
The whole screen tested about 52,000 compounds, of which about 4,300 (8.3%) were called active. Cut-off read from the data, not from the text of the source: active = survival mostly below about 52% (no sharp cut-off); inactive = mostly above about 56%. The sample as a whole holds a higher share of actives than the screen did.
Outcome codes: active, inactive

* COc1ccc(-c2ccc3c(N)c(C(=O)NCc4ccc(C)cc4)sc3n2)cc1 | inactive
* COc1cccc(-c2ccc3c(N)c(C(=O)c4ccc(F)cc4)sc3n2)c1 | active
* COc1cccc(-c2ccc3c(N)c(C(=O)Nc4cc(C(F)(F)F)ccc4OC)sc3n2)c1 | inactive
* COc1ccc(NC(=O)c2sc3nc(-c4ccc(OC)cc4)cc(C(F)(F)F)c3c2N)cc1 | inactive
* COc1ccc(C(=O)c2sc3nc(-c4ccc(F)cc4)ccc3c2N)cc1 | inactive
* Cc1cccc(C)c1NC(=O)CN(Cc1ccc(Br)cc1)S(=O)(=O)c1ccccc1 | inactive
* COc1cccc(-c2ccc3c(N)c(C(=O)Nc4ccc(C)c(F)c4)sc3n2)c1 | inactive
* COc1ccc(CCNC(=O)C(=O)NCC(c2cccs2)S(=O)(=O)c2cccs2)cc1 (stereo not given) | inactive
* COc1cccc(-c2ccc3c(N)c(C(=O)NCc4ccc(Cl)cc4)sc3n2)c1 | active
* COc1ccc(-c2ccc3c(N)c(C(=O)NCc4ccc(Cl)cc4)sc3n2)cc1 | inactive
